Molecular target: LON-1 (Caenorhabditis elegans, UniProt Q09566, V175A)
Sequence (Q09566 24-312 V175A): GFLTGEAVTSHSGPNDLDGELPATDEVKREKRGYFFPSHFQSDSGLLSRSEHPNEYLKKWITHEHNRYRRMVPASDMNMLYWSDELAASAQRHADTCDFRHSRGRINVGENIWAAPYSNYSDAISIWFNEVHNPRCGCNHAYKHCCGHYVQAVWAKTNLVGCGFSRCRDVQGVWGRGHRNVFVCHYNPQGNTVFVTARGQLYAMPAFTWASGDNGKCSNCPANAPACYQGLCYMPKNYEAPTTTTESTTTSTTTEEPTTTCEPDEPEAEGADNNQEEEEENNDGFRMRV
Test: biochemical
pKd: −log10 of the molar value. Structures can show the parent of a compound that is named as a salt.
OUTCOME_MEASURE: pKd

In [3]: df
Out[3]:
                                   compound  obs_value
0  CC(C)CCC[C@@H](C)[C@H]1CC[C@H]2[C@@H]3CC=C4C[C@@H](OS(=O)(=O)O)CC[C@]4(C)[C@H]3CC[C@]12C [cholesterol sulfate]       4.12

---

Molecular target: LON-1 (Caenorhabditis elegans, UniProt Q09566, C185Y)
Sequence (Q09566 24-312 C185Y): as the sequence (Q09566 24-312 V175A) above, with A152V, C162Y counted along it
Test: biochemical
pKd: −log10 of the molar value. Structures can show the parent of a compound that is named as a salt.
OUTCOME_MEASURE: pKd

In [3]: df
Out[3]:
                                   molecule  obs_value
0  CC(C)CCC[C@@H](C)[C@H]1CC[C@H]2[C@@H]3CC=C4C[C@@H](OS(=O)(=O)O)CC[C@]4(C)[C@H]3CC[C@]12C [cholesterol sulfate]       3.58

---

Biological target: LON-1 (Caenorhabditis elegans, UniProt Q09566, E153A)
Sequence (Q09566 24-312 E153A): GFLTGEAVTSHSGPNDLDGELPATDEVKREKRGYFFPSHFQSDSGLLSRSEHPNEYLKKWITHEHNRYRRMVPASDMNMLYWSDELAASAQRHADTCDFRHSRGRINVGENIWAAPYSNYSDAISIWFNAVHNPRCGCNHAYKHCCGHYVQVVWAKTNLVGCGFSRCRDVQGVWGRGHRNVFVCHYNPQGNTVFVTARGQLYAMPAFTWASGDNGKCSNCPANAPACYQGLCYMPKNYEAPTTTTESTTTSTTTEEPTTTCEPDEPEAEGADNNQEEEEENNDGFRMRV
Assay: biochemical
Structures can show the parent of a compound that is named as a salt.
OUTCOME_MEASURE: Kd

>>> df
                                   compound  obs_value
0  CC(C)CCC[C@@H](C)[C@H]1CC[C@H]2[C@@H]3CC=C4C[C@@H](OS(=O)(=O)O)CC[C@]4(C)[C@H]3CC[C@]12C [cholesterol sulfate]      26 µM
